assay target: hNLRP3 LRR recombinant protein (Homo sapiens, UniProt Q96P20)
Sequence (Q96P20 742-991 limits assumed): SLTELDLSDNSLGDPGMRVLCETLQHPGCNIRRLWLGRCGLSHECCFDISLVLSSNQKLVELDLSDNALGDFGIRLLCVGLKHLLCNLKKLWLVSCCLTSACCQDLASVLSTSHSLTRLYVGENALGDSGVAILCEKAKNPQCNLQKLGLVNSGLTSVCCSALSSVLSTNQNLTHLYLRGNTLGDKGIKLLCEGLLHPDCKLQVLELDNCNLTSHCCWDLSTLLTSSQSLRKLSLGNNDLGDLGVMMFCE
method notes: Surface plasmon resonance
Assay type: binding
condition info: read-out: affinity constant K D; SPR, Biacore 8K, CM5 chip, 25°C
readout name: Kd (µM)
Write the number in µM without appending the unit.

## Input hNLRP3 LRR recombinant protein (Homo sapiens, UniProt Q96P20) / Kd / COP(=O)(OC)OC(Br)C(Cl)(Cl)Br (stereo not shown) [dibrom] : value?
## Output 2690

###

System: BV2 cells
method notes: CCK-8 cell viability assay
Type: cell-based
condition info: CCK-8, 125-1,000 μM, 24 hr; significant concentrations differ per compound
readout name: cell viability of BV2 cells vs 0 μM OPPs

Before answering, review these 4 worked examples.
## Input Sample COP(=S)(OC)Oc1ccc(SC)c(C)c1 — what was its cell viability of BV2 cells vs 0 μM OPPs?
## Output significantly decreased

## Input Sample CCOP(=O)(OCC)Oc1ccc([N+](=O)[O-])cc1 — what was its cell viability of BV2 cells vs 0 μM OPPs?
## Output significantly decreased

## Input Sample COP(=O)(OC)C(O)C(Cl)(Cl)Cl (centres unmarked) — what was its cell viability of BV2 cells vs 0 μM OPPs?
## Output significantly decreased

## Input Sample CNC(=O)CSP(=S)(OC)OC [dimethoate] — what was its cell viability of BV2 cells vs 0 μM OPPs?
## Output significantly decreased

// next entry
## Input Sample COP(=O)(OC)OC=C(Cl)Cl — what was its cell viability of BV2 cells vs 0 μM OPPs?
## Output significantly decreased

###

assay target: hNLRP3 LRR recombinant protein (Homo sapiens, UniProt Q96P20)
method notes: Surface plasmon resonance
Type: binding
readout name: pKd
Schema: pKd number; meaning minus log10 of the concentration expressed in molar units.

## Input Sample COP(=O)(OC)OC=C(Cl)Cl — what was its pKd?
## Output 2.84

// next entry
## Input Sample CNC(=O)CSP(=S)(OC)OC [dimethoate] — what was its pKd?
## Output 4.05

Where these numbers come from: paper PMC11024795
